- experimental_target: BRC4/RAD51 interaction (Homo sapiens)
- Construct: Life Technologies (BRC4 peptide)
- Sequence (Q06609 1-339): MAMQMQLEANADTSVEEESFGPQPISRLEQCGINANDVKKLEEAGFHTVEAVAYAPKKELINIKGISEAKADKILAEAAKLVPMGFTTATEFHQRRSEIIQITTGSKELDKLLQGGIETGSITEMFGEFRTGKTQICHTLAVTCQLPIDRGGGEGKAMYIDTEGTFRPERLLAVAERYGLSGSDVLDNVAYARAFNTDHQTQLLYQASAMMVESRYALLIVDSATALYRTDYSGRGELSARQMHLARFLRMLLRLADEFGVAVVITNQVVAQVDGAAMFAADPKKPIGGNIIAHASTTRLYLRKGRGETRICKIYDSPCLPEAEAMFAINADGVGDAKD
- experiment_notes: Competitive ELISA assay, disruption of BRC4/RAD51 interaction
- test_context: human Rad51, biotinylated BRC4 peptide
pEC50: −log10 of the molar value.
Listed below: pEC50 values for each entry.
readout: pEC50

molecule: CC(C)(C)c1ccc(C2CC(c3c(-c4ccccc4)c4cc(Cl)ccc4[nH]c3=O)=NN2C(=O)CCC(=O)O)cc1 (stereo not drawn) [d.16]
experimental_target: BRC4/RAD51 interaction (Homo sapiens)
recorded_measurement: < 4.00
--
molecule: CC(=O)N1N=C(c2c(-c3ccccc3)c3cc(Cl)ccc3[nH]c2=O)CC1c1ccco1 (stereo not drawn) [d.21]
experimental_target: BRC4/RAD51 interaction (Homo sapiens)
recorded_measurement: < 4.00
--
molecule: COc1ccc(C2CC(c3c(-c4ccccc4)c4cc(Cl)ccc4[nH]c3=O)=NN2C(=O)CCC(=O)O)cc1 (stereo not drawn) [d.11]
experimental_target: BRC4/RAD51 interaction (Homo sapiens)
recorded_measurement: < 4.00
--
molecule: Cn1cc2cc(C3CC(c4c(-c5ccccc5)c5cc(Cl)ccc5[nH]c4=O)=NN3C(=O)CCC(=O)O)ccc2n1 (stereo not drawn) [d.28]
experimental_target: BRC4/RAD51 interaction (Homo sapiens)
recorded_measurement: < 4.00
--
molecule: CCn1cc2cc(C3CC(c4c(-c5ccccc5)c5cc(Cl)ccc5[nH]c4=O)=NN3C(C)=O)ccc2n1 (stereo not drawn) [d.30]
experimental_target: BRC4/RAD51 interaction (Homo sapiens)
recorded_measurement: < 4.00
--
molecule: COc1ccc(C2CC(c3c(-c4ccccc4)c4cc(Cl)ccc4[nH]c3=O)=NN2C(=O)CCC(=O)O)cc1F (stereo not drawn) [d.18]
experimental_target: BRC4/RAD51 interaction (Homo sapiens)
recorded_measurement: < 4.00
